Biological target: T1, Human CD39-L2 (human, UniProt O75354 61-484, limits assumed)
T1 construct: Recombinant protein coated on ELISA plates; also called NTPDase6; ENTPD6
T1 sequence: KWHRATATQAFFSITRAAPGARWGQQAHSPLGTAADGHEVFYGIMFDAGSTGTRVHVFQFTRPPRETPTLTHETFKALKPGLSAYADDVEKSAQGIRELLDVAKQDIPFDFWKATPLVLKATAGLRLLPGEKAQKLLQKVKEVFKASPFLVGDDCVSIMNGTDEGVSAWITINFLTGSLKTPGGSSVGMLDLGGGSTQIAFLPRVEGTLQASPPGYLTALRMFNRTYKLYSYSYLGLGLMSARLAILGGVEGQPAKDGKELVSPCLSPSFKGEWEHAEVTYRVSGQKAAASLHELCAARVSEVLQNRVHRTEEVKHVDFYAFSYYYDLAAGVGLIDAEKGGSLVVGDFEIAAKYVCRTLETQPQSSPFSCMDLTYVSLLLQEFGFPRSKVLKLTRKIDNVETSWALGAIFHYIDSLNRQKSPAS
Test: ELISA, recombinant isoform coated, dose range of antibody
QUANTITY: binding result

[[record]]
binder = "mAb3 (antibody, human IgG1, V domains shown, Produced as Fc silent recombinant human IgG1 with heavy chain N297Q (Kabat EU numbering) and huCk constant domain; also called anti-CD39 antibody mAb3) VH: QVQLVQSGSELKKPGASVKVSCKASGYTFTHYGMNWVRQAPGKGLKWMGWINTYTGEPTYADDFKGRFVFSLDTSVSTAYLQISSLKAEDTAVYYCARRRYEGNYVFYYFDYWGQGTTVTVSS VL: DIQMTQSPSSLSASVGDRVTITCRASENIYSYFSWYQQKPGKAPKLLIYTAKTLAEGVPSRFSGSGSGTDFTLTISSLQPEDFATYYCQHHYVTPYTFGGGTKVEIK"
assay_result = "no binding"

[[record]]
binder = "mAb7 (antibody, human IgG1, V domains shown, Produced as Fc silent recombinant human IgG1 with heavy chain N297Q (Kabat EU numbering) and huCk constant domain; also called anti-CD39 antibody mAb7) VH: QIQLVQSGSELKKPGASVKVSCKASGYTFTHYGMNWVRQAPGKGLKWMGWINTYTGEPTYADDFKGRFVFSLDASVSTAYLQISSLKAEDTAVYYCARRRYEGNYVFYYFDYWGQGTTVTVSS VL: DIQMTQSPSSLSASVGDRVTITCRASENIYSYFSWYQQKPGKAPKLLVYTAKTLAEGVPSRFSGSGSGTDFTLTISSLQPEDFATYYCQHHYVTPYTFGGGTKVEIK"
assay_result = "no binding"

